This collection of values is drawn from paper PMC3298469.

Target: CXCR3 (Homo sapiens)
Sequence (P49682 1-368): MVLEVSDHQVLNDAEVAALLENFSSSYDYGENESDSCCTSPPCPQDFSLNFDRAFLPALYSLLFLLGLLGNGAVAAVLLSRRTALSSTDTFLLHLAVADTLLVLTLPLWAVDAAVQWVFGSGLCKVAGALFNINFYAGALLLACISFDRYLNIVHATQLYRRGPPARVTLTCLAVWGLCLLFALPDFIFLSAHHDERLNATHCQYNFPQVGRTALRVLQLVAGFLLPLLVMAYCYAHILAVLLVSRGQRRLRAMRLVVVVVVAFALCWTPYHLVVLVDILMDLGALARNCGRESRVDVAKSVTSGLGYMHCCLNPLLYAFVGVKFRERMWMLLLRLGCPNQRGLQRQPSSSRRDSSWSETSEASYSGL
Test: [125I]hCXCL11 competition binding (SPA, Ba/F3 membranes)
Set-up: expressed in transfected cells; host or cells: mouse pro-B Ba/F3 cells (vector pME18Sneo), membrane preparation
Conditions: [125I]hCXCL11 12.5-250 pM; read-out: IC50 (constant, independent of input concentration)
OBSERVABLE: IC50

Recorded IC50 for CC[C@H]1CN(c2nc(N)c(C(N)=O)nc2Cl)CCN1C1CCN(Cc2ccc(Cl)cc2)CC1 [SCH 546738] , please? ~2 nM
